- Test system: CYP3A4 mRNA
- protocol details: CYP3A4 mRNA content in primary human hepatocytes
- Format: in vitro ADME
- protocol conditions: human
metric: fold induction at 1 mM
One number for each entry.

Look at this compound and give its reported fold induction at 1 mM. CCC1(c2ccccc2)C(=O)NC(=O)NC1=O [Phenobarbital, reference compound] 8.9

----------
- protocol details: Single-dose pharmacokinetics in healthy subjects
- Assay type: in vivo, human
- protocol conditions: human, plasma, oral, 75 mg
metric: Tmax (h)
Answers are plain numbers, in h.

Query (compound): CCn1c(C(=O)c2cc(C)cc(C#N)c2)c(C(C)C)c(=O)[nH]c1=O ; field requested: Tmax 2

Each recorded value in this set is attributed to paper PMC4189701.
